Ref: ChEMBL document CHEMBL4837259

Tested on: Fusobacterium nucleatum
Assay: Inhibition of Fusobacterium nucleatum ATCC 25586 recombinant MGL R373A mutant expressed in Escherichia coli BL21 (DE3) assessed as decrease in signal intensity by measuring recovery ratio by 19F NMR based competition assay relative to wild type
Parameters: scale not given: the % may be the effect or the level left
The source made the active and inactive calls. The calls are words filed in the database; no cut-off is given here.
RESULT TYPE: Activity

COMPOUND	Activity
O=C(O)c1ccnc(OC(F)(F)F)c1	80%
O=C(O)c1cn(-c2cccc(F)c2)cn1	80%
O=C(O)c1cn(-c2ccccc2F)cn1	50%
CC(C)(CC(=O)O)c1ccc(F)cc1	80%
O=C(O)c1cnc(OCC(F)(F)F)cn1	80%

Batch lookup, Activity per entry.
1. CC(C)(C)OC(=O)N1CCC(CN)(c2ccccc2C(F)(F)F)CC1
2. O=C(O)c1cnn(-c2ccc(F)cc2)c1
3. CC(C)(C)OC(=O)N1CCC(CN)(Cc2ccccc2C(F)(F)F)CC1

*A*
["Active", "80%", "Active"]
